Biological target: beta-catenin/TCF4 engagement (Homo sapiens)
Construct: expressed in transfected cells; host or cells: HEK293
Sequence (P35222 whole entry): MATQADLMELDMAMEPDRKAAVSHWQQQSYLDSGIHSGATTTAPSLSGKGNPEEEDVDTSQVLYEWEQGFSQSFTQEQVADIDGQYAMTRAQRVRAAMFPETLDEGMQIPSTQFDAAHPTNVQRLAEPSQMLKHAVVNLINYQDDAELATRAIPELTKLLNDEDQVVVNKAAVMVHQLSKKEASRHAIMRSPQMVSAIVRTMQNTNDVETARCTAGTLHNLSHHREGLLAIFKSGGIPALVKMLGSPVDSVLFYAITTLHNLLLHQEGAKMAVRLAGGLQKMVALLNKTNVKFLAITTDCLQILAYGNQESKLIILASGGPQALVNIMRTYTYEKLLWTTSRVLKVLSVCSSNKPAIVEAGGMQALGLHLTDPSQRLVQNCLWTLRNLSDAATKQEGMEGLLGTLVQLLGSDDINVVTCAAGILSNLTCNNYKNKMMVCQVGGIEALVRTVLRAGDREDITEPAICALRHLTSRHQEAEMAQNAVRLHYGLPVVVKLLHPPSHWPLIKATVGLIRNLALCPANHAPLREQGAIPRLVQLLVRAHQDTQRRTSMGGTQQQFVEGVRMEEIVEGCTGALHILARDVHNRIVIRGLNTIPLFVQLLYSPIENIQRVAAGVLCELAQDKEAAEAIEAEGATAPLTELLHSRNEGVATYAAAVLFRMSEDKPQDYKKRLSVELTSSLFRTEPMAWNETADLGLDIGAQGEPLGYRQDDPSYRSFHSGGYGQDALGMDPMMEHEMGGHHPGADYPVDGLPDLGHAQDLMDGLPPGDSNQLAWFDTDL
Assay: Nano-BRET target engagement assay (B-cat-Halo & TCF4-Luc in HEK293 cells)
Assay type: cell-based
Details: read-out: NanoBRET IC50
A collection of molecules and their measured IC50

molecule	unitOfMeasure	rel	IC50
CC(=O)N1CCC[C@]12CC=CCCCC1(CCCC=CCCCOC(=O)N3CC[C@@](C(=O)N[C@@H](Cc4ccsc4)C(=O)N[C@@H](Cc4csc5ccccc45)C(=O)N[C@@H](CCC(N)=O)C(=O)N[C@@H](CCCCNC(=O)CN4CCN(C)CC4)C(N)=O)(C3)NC(=O)[C@H](CC(N)=O)NC(=O)[C@H](Cc3ccccc3)NC(=O)[C@H](C)NC(=O)[C@H](C)NC(=O)[C@H](CC(=O)O)NC(=O)[C@H](CC(=O)O)NC1=O)NC(=O)[C@H](CC(C)(C)C)NC(=O)[C@H](CC(=O)O)NC2=O (stereo partly drawn) [I-906]	µM	>	20
CC(=O)N1CCC[C@]12CC=CCCCC1(CCCC=CCCCOC(=O)N3CC[C@@](C(=O)N[C@@H](Cc4ccsc4)C(=O)N[C@@H](Cc4csc5ccccc45)C(=O)N[C@@H](CCC(N)=O)C(=O)N[C@@H](CCCCN)C(N)=O)(C3)NC(=O)[C@H](CC(N)=O)NC(=O)[C@H](Cc3ccccc3)NC(=O)[C@H](C)NC(=O)[C@H](C)NC(=O)[C@H](CC(=O)O)NC(=O)[C@H](CC(=O)O)NC1=O)NC(=O)[C@H](CC(C)(C)C)NC(=O)[C@H](CC(=O)O)NC2=O (stereo partly drawn) [I-939]	µM	=	18
CC(=O)N1CCC[C@]12CC=CCCCC1(CCCC=CCCCCCC[C@@](C)(C(=O)N[C@@H](Cc3cccc(Cl)c3)C(=O)N[C@@H](Cc3csc4ccccc34)C(=O)N[C@@H](CCC(N)=O)C(N)=O)NC(=O)[C@H](CC(N)=O)NC(=O)[C@H](Cc3ccccc3)NC(=O)[C@H](C)NC(=O)[C@H](C)NC(=O)[C@H](CN(CC(=O)O)CC(F)(F)F)NC(=O)[C@H](CC(=O)O)NC1=O)NC(=O)[C@H](CC(C)(C)C)NC(=O)[C@H](CC(=O)O)NC2=O (stereo partly drawn) [I-933]	µM	>	20
COc1ccccc1C[C@H](NC(=O)[C@]12CCN(C1)C(=O)OCCCC=CCCCC1(CCCC=CC[C@]3(CCCN3C(C)=O)C(=O)N[C@@H](CC(=O)O)C(=O)N[C@@H](CC(C)(C)C)C(=O)N1)C(=O)N[C@@H](CC(=O)O)C(=O)N[C@@H](CC(=O)O)C(=O)N[C@@H](C)C(=O)N[C@@H](C)C(=O)N[C@@H](Cc1ccccc1)C(=O)N[C@@H](CC(N)=O)C(=O)N2)C(=O)N[C@@H](Cc1csc2ccccc12)C(=O)N[C@@H](Cc1c[nH]cn1)C(N)=O (stereo partly drawn) [I-781]	µM	=	11.6
CC(=O)N1CCC[C@]12CC=CCCCC1(CCCC=CCCCOC(=O)N3CC[C@@](C(=O)N[C@@H](Cc4ccsc4)C(=O)N[C@@H](Cc4csc5ccccc45)C(=O)N[C@@H](CCC(N)=O)C(N)=O)(C3)NC(=O)[C@H](CC(N)=O)NC(=O)[C@H](Cc3ccccc3)NC(=O)[C@H](C)NC(=O)[C@H](C)NC(=O)[C@H]([C@@H](C)O)NC(=O)[C@H](CC(=O)O)NC1=O)NC(=O)[C@H](CC(C)(C)C)NC(=O)[C@H](CC(=O)O)NC2=O (stereo partly drawn) [I-844]	µM	=	10.7
CC(=O)N1CCC[C@]12CC=CCCCC1(CCCC=CCCCCCC[C@@](C)(C(=O)N[C@@H](Cc3ccccc3)C(=O)N[C@@H](Cc3csc4ccccc34)C(=O)N[C@@H](CCC(N)=O)C(N)=O)NC(=O)[C@H](CC(N)=O)NC(=O)[C@H](Cc3ccccc3)NC(=O)[C@H](C)NC(=O)[C@H](C)NC(=O)[C@H](CCC(=O)O)NC(=O)[C@H](CC(=O)O)NC1=O)NC(=O)[C@H](CC1CCCCC1)NC(=O)[C@H](CC(=O)O)NC2=O (stereo partly drawn) [I-620]	µM	=	5.8

Origin of the recorded values: patent US20240116985A1
